Data provenance is ChEMBL document CHEMBL1201862.

# System: ACHN
# experimental-details: NCI tumour cell line growth inhibition, 48 h
Activity calls are given as the source filed them. Rule as the data show it: active = GI50 up to about 1.1 µM and inactive = higher.
Each entry below carries its recorded GI50.

These recorded examples may help you get a feel for the data.
CCCCCCCCCCCCCCCCP(=O)([O-])OCC[N+](C)(C)C : 16.5 µM (inactive)
CCOC(=O)C(NC(=O)c1cccc(Cl)c1)(Nc1ccc(S(=O)(=O)Nc2cc(C)on2)cc1)C(F)(F)F (stereo unspecified) : > 100 µM (inactive)

Attention now shifts to the item below.
Give GI50 (ACHN) of the following compound: `CC1=NN(C(=O)c2ccccc2O)C(=O)/C1=C/c1ccc(O)cc1` 0.204 µM (active)

---

# Test system: SK-MEL-28
# experimental-details: NCI tumour cell line growth inhibition, 48 h
The source made the active and inactive calls. Rule as the data show it: active = GI50 up to about 1.1 µM and inactive = higher.
Valid outcomes are listed here; reply with one: active, inactive

Record excerpt, results attached:
COc1ccc2c(c1)CCC(CN1CCN(CCOC(c3ccc(F)cc3)c3ccc(F)cc3)CC1)C2O (stereo unspecified) : inactive
CC1(O)C=CC(=O)C=C1 : inactive
COc1ccc(Nc2nc3ccccc3nc2C(=O)O)cc1OC : inactive

Record lookup: outcome of this test for COC(=O)c1cc2c3c(cc(N(C)C)c2[nH]1)N(C(=O)c1cc2cc(OC)c(OC)c(OC)c2[nH]1)CC3CCl (stereo unspecified) ? active

Record lookup: outcome of this test for COC(=O)Nc1nc2cc(S(=O)(=O)NC(CC(C)C)C(=O)OC)ccc2[nH]1 (stereo unspecified) ? inactive

Record lookup: outcome of this test for `O=C1CCCCC/C=C2/CC[C@H](Sc3ccccc3)[C@@H]12` ? inactive

Record lookup: outcome of this test for COC(=O)C1OC2(CCCC3CC32)O[C@H]1C(=O)OC (stereo partly specified) ? inactive

Record lookup: outcome of this test for COc1ccc2cc(C(C)C(=O)N3CCOC3=O)ccc2c1 (stereo unspecified) ? inactive

---

Each entry below carries its recorded GI50.
# Tested on: SK-MEL-28
# experimental-details: NCI tumour cell line growth inhibition, 48 h
Active and inactive are the calls of the source. No stated cut-off is given here; in the data, active = GI50 up to about 1.1 µM and inactive = higher.

These recorded examples may help you get a feel for the data.
COc1ccc(Br)c(CN2CCc3ccccc32)c1OS(=O)(=O)c1ccc(C)cc1 : 46 µM (inactive)
Nc1ccc(S(=O)(=O)Nc2nccs2)cc1 [SULFATHIAZOLE] : > 100 µM (inactive)
CC1CCC2C(C(=O)O[C@H]3C4CCO[C@@H](OC5OC(CO)C(O)C(O)C5O)C4[C@@]4(CO)O[C@@H]34)=CO[C@@H](OC3OC(CO)C(O)C(O)C3O)C12 (stereo partly specified) : > 10 µM (inactive)
CC(=O)OC1CC2C(=O)CC1(C)C2(C)C (stereo unspecified) : > 100 µM (inactive)
O=P1(N(CCCl)CCCl)Oc2ccc(Cl)cc2C(C(Cl)(Cl)Cl)c2cc(Cl)ccc2O1 (stereo unspecified) : 35.2 µM (inactive)

Entry `NC(=O)Cn1c(=O)oc2cc(C(=O)CN3CCOCC3)ccc21` has what GI50? > 100 µM (inactive)

Entry `IC[P+]1(c2ccccc2)CCCC1` has what GI50? 50 µM (inactive)

Entry `CCc1nc(Cl)nc(Cl)c1Cl` has what GI50? 4.95 µM (inactive)

---

# Tested on: COLO 205
# experimental-details: NCI tumour cell line growth inhibition, 48 h
Active and inactive are the calls of the source. Cut-off read from the data, not from the text of the source: active = GI50 up to about 1.1 µM and inactive = higher.
Valid outcomes are listed here; reply with one: active, inactive

CCOC(=O)/C=C(\C(=O)OCC)n1ccc(=O)n(Cc2cnnn2CCCCOC(C)=O)c1=O : inactive
O=C(O)CCCCCCC[C@H]1S[C@H]1CCCCCCO : inactive
C/C=C(/CCC1NCCc2c1[nH]c1ccccc21)[Si](C)(C)C (centres undefined) : inactive
C=CCN1C(N)=C(C#N)C(C#N)(C#N)C1CCC (centres undefined) : inactive
CC1(c2ccc(Cl)cc2)C=C(c2ccc(Cl)cc2)C(C#N)=C(C(C#N)C#N)N1.CNC (centres undefined) : inactive

Record lookup: outcome of this test for COC(=O)C1=C(C)N(NC(N)=O)C(C)(O)C12CCOC2=O (centres undefined) ? inactive

Record lookup: outcome of this test for COc1c(O)c2c3c(c(C)cc(O)c3c1O)C(=O)C(O)(C(C)(C)C(C)=O)C2=O (centres undefined) ? inactive

Record lookup: outcome of this test for `O=c1c2ccccc2nc(Cc2nc(-c3ccc(Cl)cc3)cs2)n1-c1ccc(Cl)cc1` ? inactive

Record lookup: outcome of this test for `OCC1=C[C@@](COCc2ccccc2)(OCc2ccccc2)[C@@H](OCc2ccccc2)[C@@H]1OCc1ccccc1` ? inactive

Record lookup: outcome of this test for O=C1C2C(C(=O)N1c1ccccc1)C1([N+](=O)[O-])C=C3c4ccccc4N(C(=O)c4ccccc4)C32C2C(=O)N(c3ccccc3)C(=O)C21 (centres undefined) ? inactive

Record lookup: outcome of this test for COc1cc(C2SC(=N)Nc3c2c(C)nn3C(=O)c2ccccc2O)ccc1O (centres undefined) ? inactive

---

# System: IGROV-1
# experimental-details: NCI tumour cell line growth inhibition, 48 h
Active and inactive are the calls of the source. Rule as the data show it: active = GI50 up to about 1.1 µM and inactive = higher.
Valid outcomes are listed here; reply with one: Y = active, N = inactive

Record excerpt, results attached:
COc1ccc(/C=C2/SC(c3ccccc3)N(NC(=O)CCCCCCCCC(=O)NN3C(=O)/C(=C\c4ccc(OC)c(OC)c4)SC3c3ccccc3)C2=O)cc1OC (stereo unspecified) : Y
S=C(N/N=C/c1ccccn1)N1CCCCCC1 : Y
NC(CCCCNCc1ccccc1)C(=O)O (stereo unspecified) : N
O=C1NC(=O)C(c2c[nH]c3ccccc23)=C1c1cnc[nH]1 : N
Cc1c(N2C(=O)/C(=C/c3ccc(Cl)cc3)N=C2c2ccccc2)c(=O)n(-c2ccccc2)n1C : N

Record lookup: outcome of this test for C/C(=N/NC(=O)c1ccccc1S(N)(=O)=O)C(CN1CCCCC1)C(C1=C(O)C2C=CC=CC2OC1=O)c1ccccc1 (stereo unspecified) ? N

Record lookup: outcome of this test for `Cc1c(C(=O)/C=C/c2ccccc2Cl)[n+]([O-])c2ccccc2[n+]1[O-]` ? N

Record lookup: outcome of this test for `CC12CCC(C)(c3cc(O)c(O)cc31)c1cc(O)c(O)cc12` ? N

Record lookup: outcome of this test for CC(C)N(C(=O)C12C3C4C1C1C2C3C41I)C(C)C (stereo unspecified) ? N

Record lookup: outcome of this test for `CCCCCCCCCCCCCCCCP(=O)([O-])OCC[N+](C)(C)C` ? N

Record lookup: outcome of this test for COC(CC1(/C=C/O[Si](C(C)C)(C(C)C)C(C)C)C(=O)N(COCC[Si](C)(C)C)c2ccccc21)OC (stereo unspecified) ? N

---

# Test system: OVCAR-4
# experimental-details: NCI tumour cell line growth inhibition, 48 h
Calls of active or inactive are those of the source. No stated cut-off is given here; in the data, active = GI50 up to about 1.1 µM and inactive = higher.
property-measured: GI50

Entry `O=c1[nH]c2nc(S)nc(S)c2[nH]1` has what GI50? > 100 µM (inactive)

Entry `Clc1ccc(OCc2nnc3n2N=C(c2ccccc2)CS3)cc1` has what GI50? 15.6 µM (inactive)

---

# Tested on: SN12C
# experimental-details: NCI tumour cell line growth inhibition, 48 h
Activity calls are given as the source filed them. Cut-off read from the data, not from the text of the source: active = GI50 up to about 1.1 µM and inactive = higher. Non-standard residues stand in square brackets, D forms with d. Residues, ends and D or L forms follow the SMILES beside them. *: point of attachment. hSer = N[CH](CCO)C(=O)O; Boc = CC(C)(C)OC(=O)*
Valid outcomes are listed here; reply with one: label 1 for active, label 0 for inactive

Record excerpt, results attached:
COCCC(NC(=O)C(CC(C)C)NC(=O)OC(C)(C)C)C(N)=O (stereo not drawn) (Boc-Leu-[hSer](Me)-NH2; configuration not given here) : label 0
COc1ccc2cc(C(C)C(=O)N3CCOC3=O)ccc2c1 (stereo unspecified) : label 0
NNC(=S)NCCNC(=S)NN : label 0
N#CC1=C(Cl)NC(Cl)=C(C#N)C1c1ccc(Cl)cc1 : label 0
Fc1ccc(C(OCCN2CCN(CCCc3ccccc3)CC2)c2ccc(F)cc2)cc1 : label 0

Record lookup: outcome of this test for `S=C1/C(=N/c2ccccc2)N(C2CCCCC2)/C(=N\C2CCCCC2)N1c1ccccc1` ? label 0

Record lookup: outcome of this test for O=C(CCl)N1CCCCC1C1(c2cc3ccccc3[nH]2)OCCO1 (stereo unspecified) ? label 0

Record lookup: outcome of this test for COC(=O)C1OC2(CCCC3CC32)O[C@H]1C(=O)OC (stereo partly specified) ? label 0

Record lookup: outcome of this test for `S=C(N/N=C/c1ccccn1)N1CCCCCC1` ? label 1

Record lookup: outcome of this test for `COC(=O)CCc1cccnc1/C=N/O` ? label 0

Record lookup: outcome of this test for COc1ccc(/C=C2\CC3C4CC=C5C[C@@H](O)CC[C@]5(C)C4CC[C@]3(C)C2=O)cc1OC (stereo partly specified) ? label 0

---

# System: K562
# experimental-details: NCI tumour cell line growth inhibition, 48 h
Calls of active or inactive are those of the source. Rule as the data show it: active = GI50 up to about 1.1 µM and inactive = higher.
property-measured: GI50

Entry O=C1CCC2(c3ccc(Cl)cc3)Nc3ncncc3N12 (stereo unspecified) has what GI50? > 10 µM (inactive)

Entry CC12CCC([C@H](C(O)C3CCCCC3)C1=O)C2(C)C (stereo partly specified) has what GI50? 63 µM (inactive)

Entry COC(=O)N1C=Cc2c(c(C)c3c([nH]c4ccccc43)c2C)C1C (stereo unspecified) has what GI50? 6.19 µM (inactive)

Entry `CN(N)c1cc(=O)[nH]c(=O)[nH]1` has what GI50? > 100 µM (inactive)

Entry CC1(C)C(=O)C=CC2(C)C1CC(O)C1(C)C2CCC2(C)C(c3ccoc3)OC(=O)C3OC321 (stereo unspecified) has what GI50? 24.8 µM (inactive)

Entry `COc1ccc(-c2cc(O)c3cc4c(cc3n2)OCO4)c(OC)c1` has what GI50? 32 µM (inactive)
